- EXPERIMENTAL SYSTEM: FGF14:Nav1.6 C-tail complex (Homo sapiens, UniProt Q92915+Q9UQD0)
- Construct: polymerase chain reaction (PCR) amplification of the FGF14 open reading frame (nt 1–855); C-terminal fragment of Nav1.6 (amino acids 1763–1976) fused with CD4ΔC-tail (amino acids 1–395); expressed in transfected cells
- Sequence (Q92915 1-252 isoform Q92915-2): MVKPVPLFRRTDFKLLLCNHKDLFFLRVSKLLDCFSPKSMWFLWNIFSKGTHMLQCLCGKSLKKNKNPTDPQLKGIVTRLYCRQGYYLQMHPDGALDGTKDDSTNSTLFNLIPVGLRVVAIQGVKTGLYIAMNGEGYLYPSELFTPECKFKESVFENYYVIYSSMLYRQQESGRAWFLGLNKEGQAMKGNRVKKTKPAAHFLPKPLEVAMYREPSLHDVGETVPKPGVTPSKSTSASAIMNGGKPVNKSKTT
- Sequence (Q9UQD0 1763-1976 limits assumed): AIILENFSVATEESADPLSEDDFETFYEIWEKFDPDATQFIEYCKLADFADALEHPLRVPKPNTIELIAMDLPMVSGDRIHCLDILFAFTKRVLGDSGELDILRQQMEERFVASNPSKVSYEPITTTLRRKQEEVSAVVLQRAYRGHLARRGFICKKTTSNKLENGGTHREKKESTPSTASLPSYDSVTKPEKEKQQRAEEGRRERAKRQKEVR
- MEASUREMENT PROTOCOL: Split-luciferase complementation assay (LCA) in Clone V double stable HEK293 cells
- Assay type: cell-based
- MEASUREMENT SETUP: CC_NCI screening; LCA, biological replicate Set 2; normalized to on-plate 0.3% DMSO controls
Counter-ions that a name gives are not always drawn.
The following compounds are shown together with reported Split Luciferase Assay Z-score Set 2 values.
MEASURED QUANTITY: Split Luciferase Assay Z-score Set 2

INSERT INTO assay_data (compound, measured_quantity, reported_measurement) VALUES
  ('COc1cccc2c1C(=O)c1c(O)c3c(c(O)c1C2=O)C[C@@](O)(C(=O)CO)C[C@@H]3O[C@H]1C[C@H](N)[C@@H](O)[C@H](C)O1 [Epirubicin hydrochloride]', 'Split Luciferase Assay Z-score Set 2', -4.41),
  ('Nc1nc2nc[nH]c2c(=S)[nH]1', 'Split Luciferase Assay Z-score Set 2', 0.84),
  ('Cc1ccc(Nc2nccc(N(C)c3ccc4c(C)n(C)nc4c3)n2)cc1S(N)(=O)=O', 'Split Luciferase Assay Z-score Set 2', 1.85),
  ('Cn1c(=O)n(-c2ccc(C(C)(C)C#N)cc2)c2c3cc(-c4cnc5ccccc5c4)ccc3ncc21', 'Split Luciferase Assay Z-score Set 2', 0.07),
  ('Cn1cc(CNCC2CCN(c3ncc(C(=O)NO)cn3)CC2)c2ccccc21', 'Split Luciferase Assay Z-score Set 2', 0.75),
  ('CC(C)(C)c1nc(-c2cccc(NS(=O)(=O)c3c(F)cccc3F)c2F)c(-c2ccnc(N)n2)s1.CS(=O)(=O)O [Dabrafenib mesylate]', 'Split Luciferase Assay Z-score Set 2', 1.77),
  ('CC(/C=C/C(=O)NO)=C\[C@@H](C)C(=O)c1ccc(N(C)C)cc1', 'Split Luciferase Assay Z-score Set 2', -0.43),
  ('CCN(CC)CCNC(=O)c1c(C)[nH]c(/C=C2\C(=O)Nc3ccc(F)cc32)c1C [SUNITINIB]', 'Split Luciferase Assay Z-score Set 2', -2.04),
  ('CO[C@H]1/C=C\C=C(/C)C(=O)NC2=CC(=O)C(NCCN(C)C)=C(C[C@@H](C)C[C@H](OC)[C@H](O)[C@@H](C)/C=C(\C)[C@@H]1OC(N)=O)C2=O', 'Split Luciferase Assay Z-score Set 2', -2.80),
  ('CN(C)C/C=C/C(=O)Nc1cc2c(Nc3ccc(F)c(Cl)c3)ncnc2cc1O[C@H]1CCOC1 [Afatinib]', 'Split Luciferase Assay Z-score Set 2', -3.14);
